- Measured on: GST fusion R172S mutant ALS protein (Oryza sativa subsp. japonica, UniProt Q6K2E8, R172S)
- Construct: an expression vector having the full-length wild type ALS cDNA incorporated into the Eco RI site of pGEX-2T; made in house; host or cells: E. coli JM109, pGEX-2T(ALS R172S mutant); crude supernatant
- Sequence (Q6K2E8 44-644 R172S): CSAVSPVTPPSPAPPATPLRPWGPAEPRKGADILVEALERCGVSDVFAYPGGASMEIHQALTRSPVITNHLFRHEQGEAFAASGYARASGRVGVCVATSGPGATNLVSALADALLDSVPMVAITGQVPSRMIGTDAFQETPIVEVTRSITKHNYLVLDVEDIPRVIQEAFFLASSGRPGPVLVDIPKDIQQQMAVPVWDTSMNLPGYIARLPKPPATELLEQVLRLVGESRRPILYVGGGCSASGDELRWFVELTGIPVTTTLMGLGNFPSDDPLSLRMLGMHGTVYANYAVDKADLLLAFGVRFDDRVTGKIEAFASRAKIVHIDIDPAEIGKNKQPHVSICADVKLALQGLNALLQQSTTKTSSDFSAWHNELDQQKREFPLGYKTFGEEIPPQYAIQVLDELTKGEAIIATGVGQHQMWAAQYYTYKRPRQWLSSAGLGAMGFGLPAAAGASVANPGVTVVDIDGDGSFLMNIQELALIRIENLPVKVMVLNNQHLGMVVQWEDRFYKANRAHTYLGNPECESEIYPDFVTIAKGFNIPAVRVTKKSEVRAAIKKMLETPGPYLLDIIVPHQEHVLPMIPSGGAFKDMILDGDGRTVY
- Experiment description: Herbicide sensitivity of ALS protein expressed in E. coli (crude enzyme solution), R172S
- Format: biochemical, rice (Oryza sativa var. Kinmaze)
Reported IC50 values are given for each entry in this list.
Give just the numeric value; µM need not be written.

COc1nc(C)nc(NC(=O)NS(=O)(=O)c2ccccc2Cl)n1 = 0.011
CC(C)C1(C)N=C(c2nc3ccccc3cc2C(=O)O)NC1=O (stereo not shown) = 2.3
COc1cc(OC)nc(Oc2cccc(Oc3nc(OC)cc(OC)n3)c2C(=O)O)n1 [bispyribac-sodium] = 0.0062

Now examine the next entry.
What does the record list as IC50 for COc1cc(OC)nc(Sc2cccc(Cl)c2C(=O)O)n1 [pyrithiobac-sodium] ?
0.011
